Experiment Notes: Viscosity of preferred lipids
Type: physicochemical
Assay Endpoint: Viskosity (in mPas) (s^−1 = 500)
Write it as a number; the unit mPas goes unstated.

Examples with answers:
| Compound | Reported Value |
| --- | --- |
| CC(C)CCCCCCCCCCCCCCCOC(=O)CC(O)C(=O)OCCCCCCCCCCCCCCCC(C)C (stereo not drawn) [DUB MDIS, Diisostearyl Malate] | 113 |
| CCCCCCCCCCC(CO)CCCCCCCC (stereo not drawn) [Eutanol G, Octyldodecanol] | 47.7 |
| CC(C)CCCC(C)CCCC(C)CCCCC(C)CCCC(C)CCCC(C)C (stereo not drawn) [Motif, Squalan] | 220 |
| CCCCCCCCCCCCCCCCCC(=O)OCCCC [Crodamol BS, Butyl Stearate] | 100 |
| CCCCOCCOP(=O)(OCCOCCCC)OCCOCCCC [Hostaphat B 310, Tributoxyethylphosphate] | 122 |

Consider now this further compound.
Provide measured Viskosity (in mPas) (s^−1 = 500) value, entry: CCCCC(CC)C(=O)OCC(COC(=O)C(CC)CCCC)(COC(=O)C(CC)CCCC)COC(=O)C(CC)CCCC (stereo not drawn) [Trivent PE 48, Pentaerythrityl Tetraethylhexanoate]
116
